Values were extracted from patent US20210324051A1.

// EC50 lookup, one value per entry
# STUDY TARGET: Angola strain MARV GP ectodomain lacking residues 257-425 of the mucin-like domain (Marburg virus, Angola strain, UniProt Q1PD50 19-648)
# EXPERIMENT: ELISA
Lab note: write values as number then unit, every time.

[[record]]
binder = "MR229 (antibody) chain 1: EVQLVESGGGLVKPGGSLRISCVTSGFTFGDYAMSWFRQAPGKGLEWVGFIRNKGYGGTIDYAASVKGRFTISRDDSKSIAYLQMNSLKTEDTAVYYCTGVRLHYDFWSGYDDDSFHIWGQGTM chain 2: DGVMTQSPLSLPVTPGQPASISCRSTQSLVHGDGDTYLYWFQQRPGQSPRRLIYKVSNRDSGVPDRFSGSGSGTDFTLKISRVEAEDVGVYYCMQSTHWPPTFGQ"
result = "2.9 µg/mL"

[[record]]
binder = "MR65 (antibody, V domains shown) VH: EVQLLESGGGLVQPGGSLRLSCAASGFTFSSYAMSWVRQAPGQGLEWVSGISATGGNTYYPDSVKGRFTISRDNSKNTLYLQMNSLRAEDTAVYYCARPLQFLTWFDPWGQGTLVTVSS VL: EIVLTQSPATLSLSPGERATLSCRASQSVNNFLAWYQQKPGQPPRLLIYDATNRATGIPARFSGSGSGTDFTLTISSLEPEDFAVYHCQHRSNWPSITFGQGTRLEIK"
result = "7.5 µg/mL"

[[record]]
binder = "MR111 human monoclonal antibody (antibody, V domains shown) V domain 1: QVQLQESGPGLVKPSETLSLTCTVSGDSINNYYWSWIRQPPGKGLEWIGYIYYSNTNYNPSLKSRVTISVDTSKNQFSLRLSSVTAADTAVYYCARSPLFWFGEFFSSPDHFDFWGQGTL V domain 2: QSALTQPASVSGSPGQSITISCTGTSSDVGSYDLVSWYQQHPGKAPKLMLYEGTKRPSGVSNRFSGSKSGNTASLTISGLQAEDEADYYCCSYAGGSTLVFGGGTQVTVL"
result = "4.3 µg/mL"

[[record]]
binder = "MR201 (antibody, V domains shown) VH: QLQLQESGPGLVKPSETLFLSCAVSGGSIAGSTHYWGWIRQPPGKGLEWIGSISESGSTYHNPSLKSRVTISVDTSKNYFSLNLSSVTAADTAVYYCARIVGQSGTFIYYYYAMDVWGTGTLVTVSS VL: DIQLTQSPSFLSASVGDRVTITCRASQGISSYLAWYQQKPGKAPKLLIYAASTLQRGVPSRFSGSGSGTEFTLTISSLQPEDSATYYCQQLNSYLALIFGGGT"
result = "1.9 µg/mL"


Would you kindly look at the next entry?
Q) Form field: reported EC50 of MR209 (antibody) chain 1: QLQLQESGPGLVKPSETLSLTCTVAGGPITSNNYYWGWIRQSPGKGLEWIGSVYYSGNTYYNPSIKTRVTMSVDTSKSQFSLKLNSVTAADTAVYYCARQFRLLQFVEWLHHFDSWGPGN chain 2: SYVLTQPPSVSVAPGQTARIPCGGNDIANKRVHWYQQKPGQAPMLVVYDDGDRPSGIPERFSGSNSGNTATLTISRVEAGDEADYYCQVWENSSDLCVVFGGGTKLTVL
A) 5.4 µg/mL
